Molecular target: Prostate-specific membrane antigen (PSMA) (Homo sapiens, UniProt Q04609)
Construct: gene FOLH1; extracellular part of human PSMA; amino acids 44–750
Sequence (Q04609 44-750): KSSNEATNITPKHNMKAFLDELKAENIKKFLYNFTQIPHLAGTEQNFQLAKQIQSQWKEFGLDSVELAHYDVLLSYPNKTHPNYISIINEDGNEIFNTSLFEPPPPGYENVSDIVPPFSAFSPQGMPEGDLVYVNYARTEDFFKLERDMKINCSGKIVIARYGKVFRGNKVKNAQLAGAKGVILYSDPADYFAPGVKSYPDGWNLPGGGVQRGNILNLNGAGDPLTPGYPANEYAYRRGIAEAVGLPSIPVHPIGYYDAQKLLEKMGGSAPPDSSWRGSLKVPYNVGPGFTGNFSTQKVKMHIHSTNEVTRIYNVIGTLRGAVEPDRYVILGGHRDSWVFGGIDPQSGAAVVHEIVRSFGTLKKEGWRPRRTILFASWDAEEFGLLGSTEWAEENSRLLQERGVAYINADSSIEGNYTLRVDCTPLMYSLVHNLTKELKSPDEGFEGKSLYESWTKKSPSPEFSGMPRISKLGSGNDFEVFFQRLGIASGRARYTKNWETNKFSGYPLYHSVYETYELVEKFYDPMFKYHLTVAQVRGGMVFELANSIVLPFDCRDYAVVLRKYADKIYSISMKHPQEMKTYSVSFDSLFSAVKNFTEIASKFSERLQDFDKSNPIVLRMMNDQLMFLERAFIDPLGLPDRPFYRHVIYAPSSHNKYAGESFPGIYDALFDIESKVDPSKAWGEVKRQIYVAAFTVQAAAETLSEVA
Assay: radioenzymatic assay with 3H-NAAG, purified recombinant PSMA
Format: biochemical
endpointLabel: IC50 (µM)

P = O=C(O)CC[C@H](NS(=O)(=O)N[C@@H](CCC(=O)O)C(=O)O)C(=O)O
Q = O=C(O)CC[C@H](NS(=O)(=O)N[C@@H](CC(=O)O)C(=O)O)C(=O)O
Task: Response body: label of entry with the larger IC50; valid values P , Q . # answer = label of selected item
Output: P

Numbers sourced from paper PMC10865363.
